# method description: Toxicity in human erythrocytes assessed as hemolysis by serial dilution method
# reported conditions: human erythrocytes
attribute measured: HC50 (µg/mL)
Quick note: give the figure in µg/mL, leave out the unit.

[
  {
    "substance": "H-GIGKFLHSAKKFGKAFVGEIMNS-OH [MAGAININ 2]",
    "attribute measured": "HC50",
    "observed value": 202
  }
]

From here, focus on the item given below.
Documented HC50 of H-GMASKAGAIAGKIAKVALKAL-NH2 : 165

###

This section presents compounds with their documented HC50 values.
# method description: Toxicity in human erythrocytes assessed as hemolysis by serial dilution method
# reported conditions: human erythrocytes
Square brackets hold non-standard residues; d marks the D form. Peptide text beside a SMILES is read from it. * marks the point of attachment. Orn = NCCC[C@H](N)C(=O)O; NHCH2CH2OH = OCCN*; For = O=C*
Quick note: give the figure in µg/mL, leave out the unit.

[
  {
    "compound": "CC(C)C[C@@H]1NC(=O)[C@H](CCCN)NC(=O)[C@H](C(C)C)NC(=O)[C@@H]2CCCN2C(=O)[C@@H](Cc2ccccc2)NC(=O)[C@H](CC(C)C)NC(=O)[C@H](CCCN)NC(=O)[C@H](C(C)C)NC(=O)[C@@H]2CCCN2C(=O)[C@@H](Cc2ccccc2)NC1=O [GRAMICIDIN S] (cyclo(L[dF]PV[Orn]L[dF]PV[Orn]))",
    "attribute measured": "HC50",
    "observed value": 10.1
  },
  {
    "compound": "CC(=O)NC(C)(C)C(=O)N1CCC[C@H]1C(=O)NC(C)(C)C(=O)N[C@@H](C)C(=O)NC(C)(C)C(=O)N[C@@H](C)C(=O)N[C@@H](CCC(N)=O)C(=O)NC(C)(C)C(=O)N[C@H](C(=O)NC(C)(C)C(=O)NCC(=O)N[C@@H](CC(C)C)C(=O)NC(C)(C)C(=O)N1CCC[C@H]1C(=O)N[C@H](C(=O)NC(C)(C)C(=O)NC(C)(C)C(=O)N[C@@H](CCC(=O)O)C(=O)N[C@@H](CCC(N)=O)C(=O)N[C@H](CO)Cc1ccccc1)C(C)C)C(C)C",
    "attribute measured": "HC50",
    "observed value": 17.9
  }
]

From here, focus on the item given below.
Documented HC50 of CC(C)C[C@@H](NC(=O)[C@H](C)NC(=O)CNC(=O)[C@@H](NC=O)C(C)C)C(=O)N[C@@H](C)C(=O)N[C@@H](C(=O)N[C@H](C(=O)N[C@@H](C(=O)N[C@@H](Cc1c[nH]c2ccccc12)C(=O)N[C@H](CC(C)C)C(=O)N[C@@H](Cc1c[nH]c2ccccc12)C(=O)N[C@H](CC(C)C)C(=O)N[C@@H](Cc1c[nH]c2ccccc12)C(=O)N[C@H](CC(C)C)C(=O)N[C@@H](Cc1c[nH]c2ccccc12)C(=O)NCCO)C(C)C)C(C)C)C(C)C [GRAMICIDIN A] (For-VGA[dL]A[dV]V[dV]W[dL]W[dL]W[dL]W-NHCH2CH2OH) : 2.3
